# Assay target: c-Src (Homo sapiens)
# Sequence (P12931 whole entry, species assumed): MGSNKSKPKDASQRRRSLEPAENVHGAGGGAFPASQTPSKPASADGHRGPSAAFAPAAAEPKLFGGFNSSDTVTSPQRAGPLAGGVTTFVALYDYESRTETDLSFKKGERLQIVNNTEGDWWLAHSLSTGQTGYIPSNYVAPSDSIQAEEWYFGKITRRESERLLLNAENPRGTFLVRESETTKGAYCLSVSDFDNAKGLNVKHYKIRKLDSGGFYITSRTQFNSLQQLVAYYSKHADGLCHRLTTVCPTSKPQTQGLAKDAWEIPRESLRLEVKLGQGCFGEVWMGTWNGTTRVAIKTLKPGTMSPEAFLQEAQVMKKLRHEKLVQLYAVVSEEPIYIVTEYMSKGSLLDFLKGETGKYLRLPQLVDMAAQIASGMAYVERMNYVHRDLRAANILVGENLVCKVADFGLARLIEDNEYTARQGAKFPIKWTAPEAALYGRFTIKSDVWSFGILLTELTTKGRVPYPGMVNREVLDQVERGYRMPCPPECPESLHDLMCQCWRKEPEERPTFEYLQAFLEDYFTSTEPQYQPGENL
# Assay text: c-Src kinase assay
# Type: biochemical
# Experimental setup: 10 μM compound; read-out: c-Src percent of inhibition
Readout label: inhibition at 10 µM

Lookup: Give recorded inhibition at 10 µM. O=[N+]([O-])c1cccc(Nc2nc(C3CC3)nc3sc4c(c23)CCCC4)c1
Found: 1%

Lookup: Consider the molecule Brc1cccc(Nc2ncnc3sc4ccccc4c23)c1 . State its measured inhibition at 10 µM.
Found: 7%

Lookup: Give the measured inhibition at 10 µM for Nc1ccc(Nc2ncnc3sc4c(c23)CCCC4)cc1
Found: 16%

Continuing:
Lookup: Find the measured inhibition at 10 µM of N#Cc1cccc(Nc2ncnc3sc4c(c23)CCCC4)c1 and report it.
Found: 8%

Lookup: Supply recorded inhibition at 10 µM for Fc1cccc(Nc2nc(C3CC3)nc3sc4ccccc4c23)c1 here.
Found: 2%

Lookup: Supply reported inhibition at 10 µM belonging to this molecule: Fc1cccc(Nc2ncnc3sc4ccccc4c23)c1
Found: 3%

Lookup: Hello, please tell me recorded inhibition at 10 µM for this one: Clc1cccc(Nc2ncnc3sc4ccccc4c23)c1
Found: 9%

Lookup: Please list inhibition at 10 µM recorded for the molecule Brc1cccc(Nc2ncnc3sc4c(c23)CCCC4)c1
Found: 17%

* * *

# Assay target: cMet (Homo sapiens)
# Sequence (P08581 25-1390): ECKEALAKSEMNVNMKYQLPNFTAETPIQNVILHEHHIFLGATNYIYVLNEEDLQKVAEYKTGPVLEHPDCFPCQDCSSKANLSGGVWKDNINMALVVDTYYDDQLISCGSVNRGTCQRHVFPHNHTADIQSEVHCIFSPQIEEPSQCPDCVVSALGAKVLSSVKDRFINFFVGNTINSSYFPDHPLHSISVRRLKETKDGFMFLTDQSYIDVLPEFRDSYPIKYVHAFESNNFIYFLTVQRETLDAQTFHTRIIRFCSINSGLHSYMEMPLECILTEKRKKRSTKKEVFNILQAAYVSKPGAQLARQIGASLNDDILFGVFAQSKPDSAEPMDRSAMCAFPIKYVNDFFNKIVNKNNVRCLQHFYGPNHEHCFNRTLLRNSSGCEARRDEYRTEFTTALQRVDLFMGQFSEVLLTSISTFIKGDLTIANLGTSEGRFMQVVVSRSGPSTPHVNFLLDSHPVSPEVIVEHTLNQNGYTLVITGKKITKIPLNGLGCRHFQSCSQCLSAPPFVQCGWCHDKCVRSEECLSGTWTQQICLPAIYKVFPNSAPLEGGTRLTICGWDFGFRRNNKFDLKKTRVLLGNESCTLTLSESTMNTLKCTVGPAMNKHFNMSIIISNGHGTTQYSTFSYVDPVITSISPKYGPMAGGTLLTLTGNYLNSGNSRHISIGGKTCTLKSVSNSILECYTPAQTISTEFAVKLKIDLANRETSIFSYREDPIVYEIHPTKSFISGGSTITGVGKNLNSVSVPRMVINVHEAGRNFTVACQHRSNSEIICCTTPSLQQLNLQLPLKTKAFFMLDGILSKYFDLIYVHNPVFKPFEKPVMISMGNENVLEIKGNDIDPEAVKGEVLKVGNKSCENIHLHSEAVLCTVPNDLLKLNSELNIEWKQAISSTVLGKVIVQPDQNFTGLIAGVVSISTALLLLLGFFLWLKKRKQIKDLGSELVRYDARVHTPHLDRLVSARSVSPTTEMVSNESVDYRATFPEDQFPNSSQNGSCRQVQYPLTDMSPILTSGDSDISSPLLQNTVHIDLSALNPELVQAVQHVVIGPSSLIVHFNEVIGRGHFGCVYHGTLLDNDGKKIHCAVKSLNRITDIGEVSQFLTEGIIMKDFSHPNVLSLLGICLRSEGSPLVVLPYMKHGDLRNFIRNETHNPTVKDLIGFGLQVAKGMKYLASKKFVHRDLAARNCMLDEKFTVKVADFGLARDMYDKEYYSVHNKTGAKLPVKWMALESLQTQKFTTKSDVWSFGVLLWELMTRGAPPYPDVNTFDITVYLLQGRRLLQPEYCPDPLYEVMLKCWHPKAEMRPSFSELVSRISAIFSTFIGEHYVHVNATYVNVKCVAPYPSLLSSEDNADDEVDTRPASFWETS
# Assay text: cMet kinase assay
# Assay type: biochemical
# Experimental setup: 10 μM compound; read-out: cMet percent of inhibition
Each item that follows carries a reported inhibition at 10 µM.
// note: answer is a bare numeric in %

Lookup: Answer with the recorded inhibition at 10 µM for the compound listed here: Fc1ccccc1Nc1ncnc2sc3c(c12)CCCC3 [Compound 1]
Found: 1

Lookup: Hello, please tell me recorded inhibition at 10 µM for this one: Clc1cccc(Nc2nc(C3CC3)nc3sc4c(c23)CCCC4)c1 [Compound 9]
Found: -14

More entries:
Lookup: Answer with the recorded inhibition at 10 µM of FC(F)(F)c1cccc(Nc2nc(C3CC3)nc3sc4c(c23)CCCC4)c1 [Compound 11] only.
Found: 3

Lookup: Give me measured inhibition at 10 µM, please, for this compound: Brc1cccc(Nc2ncnc3sc4ccccc4c23)c1 [Compound 23]
Found: 4

Lookup: Report inhibition at 10 µM for Nc1cccc(Nc2nc(C3CC3)nc3sc4c(c23)CCCC4)c1 [Compound 12]
Found: -6

* * *

# Assay target: Kit (Homo sapiens)
# Assay text: Kit kinase assay
# Format: biochemical
# Experimental setup: 10 μM compound; read-out: Kit percent of inhibition
Readout label: inhibition at 10 µM

Consider the worked cases shown below.
Lookup: With Kit (Homo sapiens) as the test system, provide measured inhibition at 10 µM for this molecule: Clc1cccc(Nc2nc(C3CC3)nc3sc4c(c23)CCCC4)c1
Found: -6%

Lookup: Give inhibition at 10 µM only, for Brc1cccc(Nc2ncnc3sc4c(c23)CCCC4)c1 , using Kit (Homo sapiens) data.
Found: -2%

Lookup: Enter measured inhibition at 10 µM, system Kit (Homo sapiens), for the molecule shown: Nc1cccc(Nc2ncnc3sc4c(c23)CCCC4)c1
Found: 2%

Let us examine a further case.
Lookup: Recall the reported inhibition at 10 µM of N#Cc1cccc(Nc2ncnc3sc4c(c23)CCCC4)c1 when tested on Kit (Homo sapiens).
Found: -5%

* * *

# Assay target: Kit (Homo sapiens, UniProt P10721)
# Sequence (P10721 26-976, species assumed): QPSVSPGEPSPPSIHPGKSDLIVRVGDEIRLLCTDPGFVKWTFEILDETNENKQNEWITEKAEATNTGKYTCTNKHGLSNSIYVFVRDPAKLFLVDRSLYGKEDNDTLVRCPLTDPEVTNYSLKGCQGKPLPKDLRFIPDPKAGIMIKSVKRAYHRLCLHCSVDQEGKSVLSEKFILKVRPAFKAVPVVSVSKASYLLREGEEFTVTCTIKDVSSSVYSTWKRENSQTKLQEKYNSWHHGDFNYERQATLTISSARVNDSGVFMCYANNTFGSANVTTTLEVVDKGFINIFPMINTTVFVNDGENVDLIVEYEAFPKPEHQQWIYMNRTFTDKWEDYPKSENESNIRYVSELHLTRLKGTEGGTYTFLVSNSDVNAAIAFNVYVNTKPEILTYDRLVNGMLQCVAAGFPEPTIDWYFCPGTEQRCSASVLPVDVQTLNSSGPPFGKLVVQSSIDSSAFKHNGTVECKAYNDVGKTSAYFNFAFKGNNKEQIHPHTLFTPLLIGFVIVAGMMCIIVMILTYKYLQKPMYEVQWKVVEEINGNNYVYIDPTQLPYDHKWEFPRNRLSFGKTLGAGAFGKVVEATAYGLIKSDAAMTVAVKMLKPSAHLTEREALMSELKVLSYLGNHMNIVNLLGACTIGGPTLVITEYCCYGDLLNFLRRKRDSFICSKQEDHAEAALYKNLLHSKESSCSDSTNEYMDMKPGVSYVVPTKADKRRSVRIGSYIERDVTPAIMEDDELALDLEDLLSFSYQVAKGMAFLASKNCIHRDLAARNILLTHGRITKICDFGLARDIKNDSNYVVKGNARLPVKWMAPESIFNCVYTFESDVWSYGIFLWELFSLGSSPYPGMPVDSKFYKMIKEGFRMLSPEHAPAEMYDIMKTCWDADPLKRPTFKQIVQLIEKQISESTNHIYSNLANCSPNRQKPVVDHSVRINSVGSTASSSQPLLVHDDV
# Assay text: Kit kinase assay
# Type: biochemical
# Experimental setup: 10 μM compound; read-out: Kit percent of inhibition
Readout label: inhibition at 10 µM (%)
Give just the number in %; leave the unit off.

Examples with their reported inhibition at 10 µM follow.
Lookup: Write down inhibition at 10 µM measured for item Clc1cccc(Nc2ncnc3sc4ccccc4c23)c1
Found: 1

Lookup: Give inhibition at 10 µM for the following molecule: Fc1ccccc1Nc1ncnc2sc3c(c12)CCCC3
Found: 13

Could you now consider this next molecule?
Lookup: Tell me measured inhibition at 10 µM for Brc1cccc(Nc2ncnc3sc4ccccc4c23)c1 please.
Found: 6
